- subject-of-test: UniProt Q70CQ3
- Sequence (Q70CQ3 whole entry, looked up): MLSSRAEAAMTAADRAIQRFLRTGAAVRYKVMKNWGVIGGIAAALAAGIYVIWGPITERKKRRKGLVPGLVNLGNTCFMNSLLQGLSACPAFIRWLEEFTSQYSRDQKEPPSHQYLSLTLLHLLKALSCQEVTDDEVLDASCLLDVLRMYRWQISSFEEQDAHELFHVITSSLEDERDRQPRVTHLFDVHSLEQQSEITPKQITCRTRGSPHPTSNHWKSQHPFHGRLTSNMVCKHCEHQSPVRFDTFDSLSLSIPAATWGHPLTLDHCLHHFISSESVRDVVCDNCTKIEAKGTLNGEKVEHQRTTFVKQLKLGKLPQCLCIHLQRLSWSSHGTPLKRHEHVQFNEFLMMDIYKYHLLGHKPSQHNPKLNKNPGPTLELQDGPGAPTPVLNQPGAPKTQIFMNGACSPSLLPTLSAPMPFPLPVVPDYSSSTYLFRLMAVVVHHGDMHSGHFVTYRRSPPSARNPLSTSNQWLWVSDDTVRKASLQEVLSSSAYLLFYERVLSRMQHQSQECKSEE
- test: inhibitors of ubiquitin-specific protease 30 deubiquitylating enzyme, concentration dependence, in vitro biochemical, validation of primary hits (AID 1645865)
- recorded-conditions: purified USP30, Ub-rhodamine cleavage, fluorescence, 2 h
The source made the active and inactive calls.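 How the source made its calls: active means maximal inhibition of the USP30 enzyme reaching 30% or more across the dose series; inactive means the rest.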
// one of T (active), F (inactive), no free text

What did this assay record as the result for COc1ccc(CCNC(=O)CCCn2c(=O)c3ccccc3n(CC(=O)OCc3ccccc3)c2=O)cc1OC ?
T

Hi, do you know how Cc1nn(Cc2ccccc2)c(Cl)c1C(=O)NC1CCCc2ccccc21 (stereo unspecified) came out in this test?
F

Recorded test outcome, item Cc1ccc(S(=O)(=O)N2CCC3(CC2)NC(=O)c2ccccc2N3)cc1C
T

For this compound, state the assay outcome: CC(C)(C)n1ncc2c(=O)n(Cc3cccc([N+](=O)[O-])c3)cnc21
F

# fetch the recorded call for CC(c1ccccc1)c1nc(-c2ccc(=O)[nH]c2)no1 (stereo unspecified) here
F

Entry COc1ccc(CN(C(=O)c2cc(-c3ccc(C)cc3)on2)C2CCS(=O)(=O)C2)cc1 (stereo unspecified) : call = ?
T

###

- subject-of-test: Ubiquitin carboxyl-terminal hydrolase 30 (Homo sapiens)
- test: inhibitors of ubiquitin-specific protease 30 deubiquitylating enzyme, concentration dependence, in vitro biochemical, validation of primary hits (AID 1645865)
- recorded-conditions: purified USP30, Ub-rhodamine cleavage, fluorescence, 2 h
The source made the active and inactive calls.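 How the source made its calls: active means maximal inhibition of the USP30 enzyme reaching 30% or more across the dose series; inactive means the rest.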
Pick from active, inactive when you respond.

{"columns": ["compound", "assigned-label"],
 "data": [
  ["CSc1nc2ncc3c(=O)n(CCc4ccccc4)ccc3n2n1", "inactive"]
]}

Check the results log: what was the call for CCCCCCCCCC(CCCCCCCCCC(=O)O)O[C@H]1O[C@@H](COC(C)=O)[C@H](O)[C@@H](O)[C@H]1OC(=O)CC(=O)O (stereo not given in full) ?
active

Short answer needed: outcome of this test for O=C(OCc1ccc(F)cc1)c1ccc2ccccc2n1 ?
inactive

Assay result, entry O=C(Nc1nc2ccccc2s1)c1ccc2c(c1)C(=O)N(Cc1cccnc1)C2=O — outcome?
active

Which result was noted for this compound in the test: CC1CCN(S(=O)(=O)c2ccc3[nH]cc(C(=O)NCc4ccco4)c(=O)c3c2)CC1
inactive

I'd appreciate the recorded outcome for NS(=O)(=O)c1cccc(NS(=O)(=O)c2ccc(/C=C/C(=O)OCC(=O)c3ccc(Br)cc3)cc2)c1 from this test.
inactive

How did this test come out for COc1ccccc1-c1nc(Cn2nnc(C(=O)Nc3cc(C)cc(C)c3)c2N)c(C)o1 ?
active

Returns: the outcome recorded for O=C(O)c1ccccc1C(=O)Nc1ccc(SC(C(=O)Nc2ccccc2)c2ccccc2)cc1 (stereo not given) in this assay.
inactive

Check the results log: what was the call for O=C(CCSc1ccc(Cl)cc1)c1cccs1 ?
active

Tell me the recorded outcome of this test for O=C(Nc1ccc(-c2nnc3n2CCCCC3)cc1)c1ccc2c(c1)OCO2 .
inactive

###

- subject-of-test: UniProt Q70CQ3
- test: inhibitors of ubiquitin-specific protease 30 deubiquitylating enzyme, concentration dependence, in vitro biochemical, validation of primary hits (AID 1645865)
- recorded-conditions: purified USP30, Ub-rhodamine cleavage, fluorescence, 2 h
Active and inactive are the calls of the source.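 The calls were made as follows: active = maximal inhibition of the USP30 enzyme reaching 30% or more across the dose series; inactive = the rest.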
Please answer using one outcome listed in active, inactive

# count of solved cases: 5
{"columns": ["compound", "assigned-label"],
 "data": [
  ["Cc1cc(O)c2c3c(c(O)c4c(c13)O[C@@H](C)C4(C)C)C(=O)C2=O", "active"],
  ["COc1cnc(-c2ccccn2)nc1Sc1ccc(C)cc1", "active"],
  ["O=C1N[C@@H](Cc2ccccc2)C(=O)N2[C@H]3Nc4ccccc4[C@@]3([C@]34C[C@H]5C(=O)N[C@@H](Cc6ccccc6)C(=O)N5[C@H]3Nc3ccccc34)C[C@@H]12", "active"],
  ["C=C(NC(=O)C(=C)NC(=O)c1csc(C2=N[C@@H]3c4csc(n4)[C@H]4NC(=O)c5csc(n5)[C@H]([C@](C)(O)[C@@H](C)O)NC(=O)[C@H]5CSC(=N5)/C(=C/C)NC(=O)C([C@@H](C)O)NC(=O)c5csc(n5)C3(CC2)NC(=O)[C@H](C)NC(=O)C(=C)NC(=O)[C@H](C)NC(=O)C([C@@H](C)CC)N[C@@H]2C=Cc3c(C(C)O)cc(nc3[C@H]2O)C(=O)OC4C)n1)C(N)=O (stereo partly specified)", "inactive"],
  ["CC(=O)N1CCc2cc(S(=O)(=O)NCc3ccc(C)cc3)ccc21", "inactive"]
]}

// next entry
Name the outcome recorded for Fc1ccc(Nc2nc(Nc3cccc(F)c3)nc3nccnc23)cc1 in the assay.
inactive
